# ASSAY_METHOD_TEXT: growth suppression of yeast trafficking mutant, preliminary HTS, modulators of trafficking downstream of Golgi apparatus project, 1536-format plate, OD 615 nm (AID 637)
# CONDITION: yeast transport mutant growth, absorbance 615 nm, 18 h
Calls of active or inactive are those of the source. Rule as the data show it: active = inhibition above about 30%; inactive = the rest.
Possible outcomes: yes = active, no = inactive

[
  {
    "COMPOUND": "O=C(NCc1ccco1)c1cc2sccc2n1Cc1ccccc1",
    "CLASS_NAME": "no"
  },
  {
    "COMPOUND": "CC(C)CN(CC(C)C)C(=O)CS(=O)(=O)Cc1ccccc1",
    "CLASS_NAME": "no"
  },
  {
    "COMPOUND": "Cc1cc2oc(C(=O)NC3CCS(=O)(=O)C3)c(C)c2cc1C (configuration not stated)",
    "CLASS_NAME": "no"
  },
  {
    "COMPOUND": "O=C(Nc1ccc(S(=O)(=O)N2CCc3ccccc32)cc1)c1ccc2c(c1)OCO2",
    "CLASS_NAME": "no"
  },
  {
    "COMPOUND": "Cc1cccc(NC(=O)c2ccc3ccccc3n2)n1",
    "CLASS_NAME": "no"
  },
  {
    "COMPOUND": "N#Cc1nc(-c2ccccc2Cl)oc1N1CCOCC1",
    "CLASS_NAME": "no"
  },
  {
    "COMPOUND": "CCc1nc2sc3ccccc3c(=O)c2c(=O)n1Cc1ccco1",
    "CLASS_NAME": "no"
  },
  {
    "COMPOUND": "COc1ccc(NC(=O)CSc2nc3c(c(=O)n2-c2ccc(F)cc2)SCC3)c(OC)c1",
    "CLASS_NAME": "no"
  },
  {
    "COMPOUND": "CC1=C(C(=O)OCC(C)C)C(c2cc3c(cc2Br)OCO3)NC(=O)N1C (configuration not stated)",
    "CLASS_NAME": "no"
  },
  {
    "COMPOUND": "Cc1nc2cc(NC(=O)N3c4ccccc4CC3C)ccc2o1 (configuration not stated)",
    "CLASS_NAME": "no"
  },
  {
    "COMPOUND": "Cn1c(=O)c2c(ncn2CCO)n(C)c1=O",
    "CLASS_NAME": "no"
  },
  {
    "COMPOUND": "CC(C)NCC(O)COc1ccc(CC(N)=O)cc1 (configuration not stated)",
    "CLASS_NAME": "no"
  },
  {
    "COMPOUND": "COc1ccc(NC(=O)N(C2CCCCC2)C2CCN(C(C)C)CC2)c(OC)c1",
    "CLASS_NAME": "no"
  },
  {
    "COMPOUND": "Cn1c(=O)c2c3c(sc2n2c(SCC(=O)c4ccc(Cl)cc4)nnc12)COC(C)(C)C3",
    "CLASS_NAME": "no"
  },
  {
    "COMPOUND": "CC(=O)Nc1ccn(-c2ccccc2)n1",
    "CLASS_NAME": "no"
  },
  {
    "COMPOUND": "O=S1(=O)C=C(Sc2nc3ccccc3s2)c2ccccc21",
    "CLASS_NAME": "yes"
  },
  {
    "COMPOUND": "O=C1c2ccccc2C(Nc2ccc3nc(-c4cccnc4)[nH]c3c2)N1Cc1ccco1 (configuration not stated)",
    "CLASS_NAME": "no"
  },
  {
    "COMPOUND": "O=C1CN(C(=O)COC(=O)C23CC4CC(CC(O)(C4)C2)C3)c2ccccc2N1",
    "CLASS_NAME": "no"
  },
  {
    "COMPOUND": "CCCC1Cc2c(sc3ncnc(N)c23)CO1 (configuration not stated)",
    "CLASS_NAME": "no"
  },
  {
    "COMPOUND": "CC(C)C(c1nnnn1C1CCCC1)N1CCCc2ccccc21 (configuration not stated)",
    "CLASS_NAME": "no"
  },
  {
    "COMPOUND": "N#Cc1c(N)n(CCOC(=O)c2cccc(Br)c2)c2nc3ccccc3nc12",
    "CLASS_NAME": "no"
  },
  {
    "COMPOUND": "CCOC(=O)Nc1cc(OC)c(OC)cc1Cc1nccc2cc(OC)c(OC)cc12",
    "CLASS_NAME": "no"
  },
  {
    "COMPOUND": "N#Cc1cnc(SCC(=O)c2ccccc2)nc1N",
    "CLASS_NAME": "no"
  },
  {
    "COMPOUND": "Cc1cccc(C)c1-n1nnnc1SCSc1nnnn1-c1c(C)cccc1C",
    "CLASS_NAME": "no"
  },
  {
    "COMPOUND": "CCc1nnc(-n2nc(C)cc2-c2ccccc2)n1N",
    "CLASS_NAME": "no"
  },
  {
    "COMPOUND": "C=CCn1c(N)c(C(=O)OC(C)(C)C)c2nc3ccccc3nc21",
    "CLASS_NAME": "no"
  },
  {
    "COMPOUND": "COC(=O)c1sc(N)c(C(=O)OC)c1COC(=O)C1CC(=O)N(Cc2ccco2)C1 (configuration not stated)",
    "CLASS_NAME": "no"
  },
  {
    "COMPOUND": "CCCc1cc(=O)[nH]c(=S)[nH]1",
    "CLASS_NAME": "no"
  },
  {
    "COMPOUND": "O=C(Nc1cccc2ccccc12)N1CCN(c2ccccc2)CC1",
    "CLASS_NAME": "no"
  },
  {
    "COMPOUND": "CCc1ccc(NC(=O)c2cccnc2)cc1",
    "CLASS_NAME": "no"
  },
  {
    "COMPOUND": "Cn1c(=O)c2ccccc2n(Cc2ccccc2F)c1=O",
    "CLASS_NAME": "no"
  },
  {
    "COMPOUND": "CCC1CCCCN1c1nc(-c2ccncc2)nc2ccccc12 (configuration not stated)",
    "CLASS_NAME": "no"
  },
  {
    "COMPOUND": "Cc1cccc(N(C)C(=S)Oc2ccc3ccccc3c2)c1",
    "CLASS_NAME": "no"
  },
  {
    "COMPOUND": "CN(CCc1ccccn1)c1ncnc2[nH]ncc12",
    "CLASS_NAME": "no"
  },
  {
    "COMPOUND": "CN1CCCC(OC(=O)c2ccc3c(c2)OCCO3)C1 (configuration not stated)",
    "CLASS_NAME": "no"
  },
  {
    "COMPOUND": "CCCNC(=O)C1CN(S(=O)(=O)c2ccccc2)CCN1S(=O)(=O)c1ccccc1 (configuration not stated)",
    "CLASS_NAME": "no"
  },
  {
    "COMPOUND": "CN(CC(=O)Nc1cccnc1)S(=O)(=O)c1cc(Cl)ccc1Cl",
    "CLASS_NAME": "no"
  },
  {
    "COMPOUND": "CN(C)c1nc(N(C)C)nc(N(C)C)n1",
    "CLASS_NAME": "no"
  },
  {
    "COMPOUND": "COC(=O)Cc1c(C)c2ccc(OCC(=O)N3CCOCC3)cc2oc1=O",
    "CLASS_NAME": "no"
  },
  {
    "COMPOUND": "CC(=O)Nc1ccc(NC(=O)C(C)Oc2ccccc2F)cc1 (configuration not stated)",
    "CLASS_NAME": "no"
  },
  {
    "COMPOUND": "Cc1c(C)[n+](=O)c2c(n1[O-])CCCCC2",
    "CLASS_NAME": "no"
  },
  {
    "COMPOUND": "CC(=O)Nc1cc(NC(C)=O)cc(C(=O)OCC(=O)N2CC(C)OC(C)C2)c1 (configuration not stated)",
    "CLASS_NAME": "no"
  },
  {
    "COMPOUND": "O=C(C1CCCN(S(=O)(=O)c2cccc3nonc23)C1)N1CCC(Cc2ccccc2)CC1 (configuration not stated)",
    "CLASS_NAME": "no"
  },
  {
    "COMPOUND": "CCn1ncc(C2=NOC(C(=O)NCc3ccc(Cl)cc3)C2)c1C (configuration not stated)",
    "CLASS_NAME": "no"
  },
  {
    "COMPOUND": "CC1CNCCN1S(=O)(=O)c1cccc2cnccc12 (configuration not stated)",
    "CLASS_NAME": "no"
  },
  {
    "COMPOUND": "COc1ccc(C2NC(c3ccc(OC)c(OC)c3OC)C(C)C(=O)C2C)c(OC)c1OC (configuration not stated)",
    "CLASS_NAME": "no"
  },
  {
    "COMPOUND": "Cc1nc(N2CCN(c3ncccn3)CC2)c2oc3ccccc3c2n1",
    "CLASS_NAME": "no"
  }
]

Data origin, for the record: PubChem BioAssay
